target entity: recombinant human liver glycogen phosphorylase (Homo sapiens)
Construct: made in house; host or cells: Sf9 insect cells (crude homogenate, diluted, used as the enzyme solution)
Sequence (P06737 1-847): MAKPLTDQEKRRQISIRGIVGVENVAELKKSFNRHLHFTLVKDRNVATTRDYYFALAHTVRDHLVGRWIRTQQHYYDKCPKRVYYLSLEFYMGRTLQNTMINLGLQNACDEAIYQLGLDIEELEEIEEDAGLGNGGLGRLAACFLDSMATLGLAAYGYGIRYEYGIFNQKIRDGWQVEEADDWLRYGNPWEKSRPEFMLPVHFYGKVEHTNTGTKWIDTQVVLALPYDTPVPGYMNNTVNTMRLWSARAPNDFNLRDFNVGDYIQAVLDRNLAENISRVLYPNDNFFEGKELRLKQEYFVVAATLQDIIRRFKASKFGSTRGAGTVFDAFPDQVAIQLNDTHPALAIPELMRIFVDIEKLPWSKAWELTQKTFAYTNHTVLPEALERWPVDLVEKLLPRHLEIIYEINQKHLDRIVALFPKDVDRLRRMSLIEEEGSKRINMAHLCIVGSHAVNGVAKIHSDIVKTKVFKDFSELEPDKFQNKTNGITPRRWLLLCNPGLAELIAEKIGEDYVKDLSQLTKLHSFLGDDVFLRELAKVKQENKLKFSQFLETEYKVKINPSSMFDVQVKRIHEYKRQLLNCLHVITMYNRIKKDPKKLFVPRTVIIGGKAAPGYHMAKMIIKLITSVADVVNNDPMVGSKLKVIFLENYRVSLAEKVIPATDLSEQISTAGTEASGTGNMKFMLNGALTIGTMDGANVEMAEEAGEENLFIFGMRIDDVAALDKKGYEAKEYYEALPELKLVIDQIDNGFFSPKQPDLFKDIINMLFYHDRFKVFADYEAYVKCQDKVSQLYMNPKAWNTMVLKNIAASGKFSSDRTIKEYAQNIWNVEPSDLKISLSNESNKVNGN
protocol summary: Measuring liver glycogen phosphorylase activity (forward reaction system, NADPH absorbance at 340 nm)
Assay type: biochemical
setup conditions: compound concentration 100 nmol (in parentheses); read-out: inhibition rate (%) at a certain concentration
Protocol: [Pharmacological Test] 1. Exemplary Test (1) Method for Measuring Liver Glycogen Phosphorylase Activity The measurement of glycogen phosphorylase activity was carried out by a method using the forward reaction system. The measurement of glycogen phosphorylase activity using the forward reaction system was carried out as follows. […] NADPH generated from NADP during the dehydrogenation by G6PDH was detected. […]
measurement type: inhibition at 0.1 µM (%)

- O=C(Nc1cnccn1)c1cc(NC(=O)c2cc(F)c(F)cc2Cl)[nH]n1: 5
- O=C(N[C@@H]1c2ccccc2C[C@@H]1O)c1cc(NC(=O)c2cc(F)c(F)cc2Cl)[nH]n1: 1.8
- O=C(NCCc1ccccn1)c1cc(NC(=O)c2cc(F)c(F)cc2Cl)[nH]n1: 22.9
- CC(NC(=O)c1cc(NC(=O)c2cc(F)c(F)cc2Cl)[nH]n1)c1cccnc1 (centres unmarked): 36.4
- O=C(Nc1cccc2cnccc12)c1cc(NC(=O)c2cc(F)c(F)cc2Cl)[nH]n1: 9.6
- C[C@H](NC(=O)c1cc(NC(=O)c2cc(F)c(F)cc2Cl)[nH]n1)c1ccccc1: 5.7
- C[C@@H](NC(=O)c1cc(NC(=O)c2cc(F)c(F)cc2Cl)[nH]n1)c1ccccc1: 43.1
- O=C(Nc1cccc2ncccc12)c1cc(NC(=O)c2cc(F)c(F)cc2Cl)[nH]n1: 12.8
